Biological target: CSF1R kinase (recombinant N-terminal GST-CSF1R, residues L534-C972) (Homo sapiens, UniProt P07333)
Construct: Recombinant N-terminal GST-CSF1R (CSF1R residues L534-C972) containing the CSFIR kinase domain
Sequence (P07333 534-972): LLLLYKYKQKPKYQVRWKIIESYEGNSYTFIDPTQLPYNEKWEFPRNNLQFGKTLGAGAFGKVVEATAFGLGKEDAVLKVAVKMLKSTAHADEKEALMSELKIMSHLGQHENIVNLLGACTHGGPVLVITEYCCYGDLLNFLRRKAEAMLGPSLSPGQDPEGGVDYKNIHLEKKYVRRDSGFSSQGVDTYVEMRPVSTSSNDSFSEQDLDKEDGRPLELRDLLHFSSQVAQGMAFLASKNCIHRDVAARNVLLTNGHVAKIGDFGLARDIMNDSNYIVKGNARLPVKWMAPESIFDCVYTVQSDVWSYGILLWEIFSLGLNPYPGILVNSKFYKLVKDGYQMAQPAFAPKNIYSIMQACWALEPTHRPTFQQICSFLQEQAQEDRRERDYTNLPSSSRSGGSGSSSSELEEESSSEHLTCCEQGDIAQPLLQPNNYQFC
Assay: CSF1R Kinase-Glo assay
Conditions: 40 μM ATP, 30° C. 180 min, read-out: Enzymatic Assay CSF1R enzyme IC50
Procedure: A study was conducted to test certain compounds described in EXAMPLE 1 in inhibiting CSF1R kinase activity. Activity of CSF1R kinase was determined using a CSF1R Kinase-Glo assay. […] A 70-μL aliquot of each reaction mixture was transferred to a black microtiter plate and luminescence was measured on Wallac Vector 1420 multilabel counter (PerkinElmer, Shelton, CT, USA). […]
IC50 values by entry

Recorded results for 6 compounds are shown here.
CN(C)c1ccc2c(Oc3ccc(NC(=O)NCc4ccco4)cc3)ncnc2c1 [Compound 63] | 20 to 100 nM
C[C@@H]1CN(c2ccc3c(Oc4ccc(NC(=O)NCc5ccc(C(F)(F)F)nc5)cc4)ncnc3c2)C[C@H](C)N1 [Compound 34] | < 20 nM
CN(C)c1ccc2c(Oc3ccc(NC(=O)NCc4ccc(C(F)(F)F)nc4)cc3)ccnc2c1 [Compound 73] | 20 to 100 nM
COC[C@@H]1CCCN1c1ccc2c(Oc3ccc(NC(=O)Nc4ccccc4)cc3)ncnc2c1 [Compound 6] | 20 to 100 nM
CN(CCCN1CCOCC1)c1ccc2c(Oc3ccc(NC(=O)NCc4ccc(C(F)(F)F)nc4)cc3)ncnc2c1 [Compound 45] | < 20 nM
CN(CCO)c1ccc2c(Oc3ccc(NC(=O)NCc4ccc(C(F)(F)F)nc4)cc3)ncnc2c1 [Compound 40] | 20 to 100 nM

IN: If you can, please state the reported IC50 value of CCOc1cc2ncnc(Oc3ccc(NC(=O)NCc4ccc(C(F)(F)F)nc4)cc3)c2cc1F [Compound 41] .
OUT: 20 to 100 nM

IN: Entry CN(CCCO)c1ccc2c(Oc3ccc(NC(=O)NCc4ccc(C(F)(F)F)nc4)cc3)ncnc2c1 [Compound 39] please
OUT: < 20 nM

###

Biological target: CSF1R kinase (recombinant N-terminal GST-CSF1R, residues L534-C972) (Homo sapiens, UniProt P07333)
Construct: Recombinant N-terminal GST-CSF1R (CSF1R residues L534-C972) containing the CSFIR kinase domain
Assay: CSF1R Kinase-Glo assay
Conditions: 40 μM ATP, 30° C. 180 min, read-out: Enzymatic Assay CSF1R enzyme IC50
pIC50: −log10 of the molar value.
pIC50 values by entry

Recorded results for 3 compounds are shown here.
CN(C)c1ccc2c(Oc3ccc4c(ccn4C(=O)NCc4ccc(C(F)(F)F)nc4)n3)ncnc2c1 [Compound 89] | 6.00 to 7.00
O=C(NCc1ccc(C(F)(F)F)nc1)Nc1ccc(Oc2ccnc(C(=O)NCCCN3CCOCC3)c2)cc1 [Compound 77] | 6.00 to 7.00
COCCCNC(=O)c1cc(Oc2ccc(NC(=O)Nc3ccccc3)cc2)ccn1 [Compound 72] | < 6.00

IN: If you can, please state the reported pIC50 value of COc1ccc(CNC(=O)Nc2ccc(Oc3ncnc4cc(N(C)C)ccc34)cc2C)cc1 [Compound 64] .
OUT: < 6.00

IN: Entry O=C(Nc1ccccc1)Nc1ccc(Oc2ncnc3cc(N4CCC[C@@H]4CO)ccc23)cc1 [Compound 1] please
OUT: 7.00 to 7.70

IN: Entry CN(C)c1ccc2c(Oc3ccc(NC(=S)Nc4ccccc4)cc3)ncnc2c1 [Compound 22] please
OUT: 6.00 to 7.00

IN: Entry COC1CCN(c2ccc3c(Oc4ccc(NC(=O)Nc5cccc(Cl)c5)cc4)ncnc3c2)CC1 [Compound 17] please
OUT: > 7.70

IN: Entry COc1cc(Oc2ncnc3cc(N(C)C)ccc23)ccc1NC(=O)NCc1ccc(C(F)(F)F)nc1 [Compound 42] please
OUT: > 7.70

IN: Entry COc1ccc(CNC(=O)Nc2ccc(Oc3ncnc4cc(N(C)C)ccc34)cc2)cc1OC [Compound 55] please
OUT: 7.00 to 7.70

IN: Entry Cn1cc(-c2ccc3c(Oc4ccc(NC(=O)NCc5ccc(C(F)(F)F)nc5)cc4)ncnc3c2)cn1 [Compound 85] please
OUT: 7.00 to 7.70

IN: Entry CN(C)c1ccc2c(Oc3ccc(NC(=O)Nc4cccc(C(F)(F)F)c4)cc3)ncnc2c1 [Compound 53] please
OUT: 6.00 to 7.00

IN: Entry O=C(NCc1ccc(C(F)(F)F)nc1)Nc1ccc(Oc2ncnc3cc(N4CCC(O)CC4)ccc23)cc1 [Compound 30] please
OUT: > 7.70

IN: Entry CN(C)c1ccc2c(Oc3ccc(NC(=O)Nc4ccc(Cl)cc4)cc3)ncnc2c1 [Compound 19] please
OUT: > 7.70

IN: Entry O=C(NCc1ccc(C(F)(F)F)nc1)Nc1ccc(Oc2ncnc3[nH]ccc23)cc1 [Compound 93] please
OUT: 7.00 to 7.70

IN: Entry CN(C)C1CCN(c2ccc3c(Oc4ccc(NC(=O)Nc5ccccc5)cc4)ncnc3c2)CC1 [Compound 11] please
OUT: 7.00 to 7.70

IN: Entry CN1CCN(c2ccc3c(Oc4ccc(NC(=O)NCc5ccc(C(F)(F)F)nc5)cc4)ncnc3c2)CC1 [Compound 28] please
OUT: 7.00 to 7.70

###

IC50 values by entry
Biological target: CSF1R kinase (recombinant N-terminal GST-CSF1R, residues L534-C972) (Homo sapiens, UniProt P07333)
Construct: Recombinant N-terminal GST-CSF1R (CSF1R residues L534-C972) containing the CSFIR kinase domain
Test: CSF1R Kinase-Glo assay
Details: 40 μM ATP, 30° C. 180 min, read-out: Enzymatic Assay CSF1R enzyme IC50

CN(C)c1ccc2c(Oc3ccc(NC(=O)NCc4cccnc4)cc3)ncnc2c1 | 100 to 1000 nM

IN: If you can, please state the reported IC50 value of "O=C(NCc1ccc(C(F)(F)F)nc1)Nc1ccc(Oc2ncnc3cc(N[C@@H]4CCCC[C@H]4O)ccc23)cc1" .
OUT: 20 to 100 nM

IN: Entry "COc1cc2nccc(Oc3ccc(NC(=O)NCc4ccc(C(F)(F)F)nc4)cc3)c2cc1OC" please
OUT: 20 to 100 nM

IN: Entry "CN(C)C1CCN(c2ccc3c(Oc4ccc(NC(=O)NCc5ccc(C(F)(F)F)nc5)cc4)ncnc3c2)CC1" please
OUT: 20 to 100 nM

IN: Entry "O=C(Nc1ccccc1)Nc1ccc(Oc2ncnc3cc(F)ccc23)cc1" please
OUT: 100 to 1000 nM

Where do these numbers come from? They come from patent US12668584B2.
